Tested on: adjuvant induced arthritis
Experiment: adjuvant induced arthritis in rats (Freund's adjuvant, injected right hind paw; chronic inflammation with joint destruction)
Type: in vivo, royal Hart, Wistar strain rats
Details: oral, 50 mg./kg. of body weight, once daily days 0-13; day 14
Method: Groups of three royal Hart, Wistar strain rats weighing 200+10 grams each were injected intradermally in the right hind paw with Freund's adjuvant (dried human tubercle bacilli in a mineral oil vehicle) at a dose of 2 mg./kg. of body weight. Test compounds were administered orally in a 1.5% starch vehicle at various doses once daily on days 0 through 13 post challenge. […] On the 14th and 21st day post challenge the diameter of the injected paw (primary lesion) was measured by micrometer caliper. […]
For each entry below, report its Mean Weight Gain value.
One number for each entry, in grams.

Known results for compounds:
- compound: "N#CCC(=O)c1ccccc1 [Benzoylacetonitrile, benzoylacetonitrile]"
  Mean Weight Gain [grams]: 53
- compound: "N#CCC(=O)c1ccc(F)cc1 [p-Fluorobenzoylacetonitrile, p-fluorobenzoylacetonitrile]"
  Mean Weight Gain [grams]: 61
- compound: "N#CCC(=O)c1ccccc1F [o-Fluorobenzoylacetonitrile, o-fluorobenzoylacetonitrile]"
  Mean Weight Gain [grams]: 71

# input for lookup
Query (compound): N#CCC(=O)c1cccc(F)c1 [m-Fluorobenzoylacetonitrile, m-fluorobenzoylacetonitrile] ; field requested: Mean Weight Gain
43

---

test system: adjuvant induced arthritis; test: adjuvant induced arthritis in rats (Freund's adjuvant, injected right hind paw; chronic inflammation with joint destruction); format: in vivo, royal Hart, Wistar strain rats; details: oral, 50 mg./kg. of body weight, once daily days 0-13; at 21 days
For each entry below, report its Dead/Treated At 21 Days value.

- smilesRepresentation: "N#CCC(=O)c1cccc(F)c1"
  Dead/Treated At 21 Days: "0/21"
- smilesRepresentation: "N#CCC(=O)c1ccc(F)cc1"
  Dead/Treated At 21 Days: "2/36"

Give me Dead/Treated At 21 Days for each of these compounds, listed below.
1. N#CCC(=O)c1ccccc1
2. N#CCC(=O)c1ccccc1F

1: 6/54; 2: 1/18
